Sourced from patent US5830888A

Hi! I'm sharing some IC50 results obtained with HIV protease (Human immunodeficiency virus type 1 group M subtype B).
parameterMeasured: IC50 (nM)

CC(C)CCN1C[C@@H](O)[C@H](Cc2ccccc2)NC(=O)[C@@H](NC(=O)OCc2ccccc2)CSCCCCCNC1=O: 570

1 = CC(C)CCN1C[C@@H](O)[C@H](Cc2ccccc2)NC(=O)[C@@H](NC(=O)c2ccc3ccccc3n2)CSCCCCCNC1=O
2 = CC(=O)N[C@H]1CSCCCCCNC(=O)N(CCC(C)C)C[C@@H](O)[C@H](Cc2ccccc2)NC1=O
3 = CC(C)CCN1C[C@@H](O)[C@H](Cc2ccccc2)NC(=O)[C@@H](NC(=O)OCc2ccccc2)CSCCCCC(C)(C)NC1=O
4 = CC(C)CCN1C[C@@H](O)[C@H](Cc2ccccc2)NC(=O)[C@@H](NC(=O)OCc2ccccc2)CSCCCCNC1=O
# rank_down: sort by IC50, max first To answer, arrange all of the labels according to the requested order. 2, 1, 4, 3
